- System: HepG2
- method: GSK_TCMDC: Percent inhibition of human HepG2 cell line. Test compounds present at 10uM.
- Type: functional
// assign TRUE if Inhibition falls strictly below 30%, else FALSE (ties count as FALSE)

Worked set:
INSERT INTO results (structure_smiles, class_assignment) VALUES
  ('CN1CCN(Cc2cccc(-c3ccc4c(Nc5cc(O)c(Cl)cc5F)ccnc4c3)c2)CC1', 'TRUE'),
  ('O=C(/C=C/c1ccc(Cl)c(Cl)c1)NCCCCCN1CCC(NC(=O)c2cc(Cl)ccc2F)CC1', 'FALSE');

stdin: Say whether its Inhibition is strictly beneath 30%. Entry: `Cc1ccc(NC(=O)c2nc(N3CCN(c4ccncc4)CC3)ccc2Cl)cc1F.O=C(O)C(F)(F)F`
stdout: FALSE

stdin: Say whether its Inhibition is strictly beneath 30%. Entry: `COc1ccccc1/C=C/C(=O)N(C)C1CCN(CCCCCNC(=O)/C=C/c2ccc(Cl)c(Cl)c2)CC1`
stdout: FALSE

stdin: Say whether its Inhibition is strictly beneath 30%. Entry: `Cc1ccccc1CNC(=O)Nc1cccc(-c2csc(NC(=N)N)n2)c1`
stdout: TRUE

stdin: Say whether its Inhibition is strictly beneath 30%. Entry: `O=[N+]([O-])c1ccc2nccnc2c1`
stdout: TRUE

stdin: Say whether its Inhibition is strictly beneath 30%. Entry: `CN1CCC(NCc2cccc(-c3ccc(S(=O)(=O)NCCc4ccccn4)cc3)c2)CC1.O=C(O)C(F)(F)F`
stdout: TRUE

stdin: Say whether its Inhibition is strictly beneath 30%. Entry: `Nc1nc(N)c2c(Cc3ccc(Br)cc3)cccc2n1`
stdout: TRUE

stdin: Say whether its Inhibition is strictly beneath 30%. Entry: `CN(CCN1CCC(c2c[nH]c3ccccc23)CC1)C(=O)OCCCCCNC(=O)/C=C/c1ccc(Cl)c(Cl)c1`
stdout: FALSE

Data provenance: ChEMBL document CHEMBL1157539
